Below: a set of entries, each annotated with reported EC50.
# target: hTRPM8 (Homo sapiens, UniProt Q7Z2W7)
# Sequence (Q7Z2W7 whole entry): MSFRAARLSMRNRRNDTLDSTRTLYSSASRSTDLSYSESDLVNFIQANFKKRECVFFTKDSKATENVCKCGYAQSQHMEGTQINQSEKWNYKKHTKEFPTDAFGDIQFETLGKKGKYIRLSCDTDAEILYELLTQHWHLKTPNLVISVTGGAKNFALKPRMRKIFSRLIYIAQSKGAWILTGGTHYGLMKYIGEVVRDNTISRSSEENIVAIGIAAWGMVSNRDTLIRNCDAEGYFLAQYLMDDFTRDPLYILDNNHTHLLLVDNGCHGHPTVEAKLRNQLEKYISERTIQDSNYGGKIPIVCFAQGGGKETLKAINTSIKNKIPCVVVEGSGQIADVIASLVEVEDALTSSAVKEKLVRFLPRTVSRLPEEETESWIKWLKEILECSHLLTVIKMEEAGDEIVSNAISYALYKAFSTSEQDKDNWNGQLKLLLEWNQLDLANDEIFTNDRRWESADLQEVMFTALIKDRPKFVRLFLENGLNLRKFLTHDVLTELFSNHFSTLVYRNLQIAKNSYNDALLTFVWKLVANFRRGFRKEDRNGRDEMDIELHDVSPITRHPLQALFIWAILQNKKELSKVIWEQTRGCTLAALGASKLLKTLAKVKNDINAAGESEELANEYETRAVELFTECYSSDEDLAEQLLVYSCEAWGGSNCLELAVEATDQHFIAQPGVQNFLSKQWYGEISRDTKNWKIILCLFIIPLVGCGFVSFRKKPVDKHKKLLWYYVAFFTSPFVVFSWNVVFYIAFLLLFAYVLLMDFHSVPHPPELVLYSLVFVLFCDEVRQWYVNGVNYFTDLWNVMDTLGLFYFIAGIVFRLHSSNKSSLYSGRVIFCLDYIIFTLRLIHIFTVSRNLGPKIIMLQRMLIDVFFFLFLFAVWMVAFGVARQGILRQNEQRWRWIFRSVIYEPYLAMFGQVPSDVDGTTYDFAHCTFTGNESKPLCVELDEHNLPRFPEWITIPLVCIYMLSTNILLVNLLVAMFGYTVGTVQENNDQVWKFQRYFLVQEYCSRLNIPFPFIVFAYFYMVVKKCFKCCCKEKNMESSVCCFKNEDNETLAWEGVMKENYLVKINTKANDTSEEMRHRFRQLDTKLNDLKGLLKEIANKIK
# testProtocol: Assay on TRPM8 modulators: calcium imaging (Fluo-4, Flexstation) in HEK293 cell line stably expressing hTRPM8
# assayContext: HEK293 cells stably expressing hTRPM8; calcium influx, Fluo-4, Flexstation 3; sigmoidal dose-response fit

Known results for molecules:
CSC(C)C(=O)N1CCCCC1c1ncc(-c2ccc(C)cc2)[nH]1 (centres unmarked) ... < 0.05 µM
CCC(CC)C(=O)N1CCCCC1c1nc(-c2ccccc2)c[nH]1 (centres unmarked) ... 0.05 to 0.3 µM
CNCc1ccc(-c2cnc(C3CCCCN3C(=O)C(C)SC)[nH]2)cc1 (centres unmarked) ... 1 to 35 µM
Cc1ccc(-c2cnc(C3CCCCN3C(=O)C3CCOC3)[nH]2)cc1 (centres unmarked) ... 0.3 to 1 µM

Exam item: Fill in reported EC50 for this entry: CSC(C)C(=O)N1CCCCC1c1nc(-c2cnn(C(F)(F)F)c2)c[nH]1 (centres unmarked)
Marked response: 0.05 to 0.3 µM

====

Below: a set of entries, each annotated with reported EC50.
# target: hTRPM8 (Homo sapiens)
# testProtocol: Assay on TRPM8 modulators: calcium imaging (Fluo-4, Flexstation) in HEK293 cell line stably expressing hTRPM8
# assayContext: HEK293 cells stably expressing hTRPM8; calcium influx, Fluo-4, Flexstation 3; sigmoidal dose-response fit

Known results for molecules:
CSC(C)C(=O)N1CCCCC1c1nc(-c2ccc(C(C)C)cc2)c[nH]1 (stereo not drawn) [Compound 40] ... < 50 nM
Cc1ccc(-c2cnc(C3CCCCN3C(=O)C3CC3(C)C)[nH]2)cc1 (stereo not drawn) [Compound 193] ... < 50 nM
CSC(C)C(=O)N1CCCCC1c1ncc(-c2cccc(F)c2)[nH]1 (stereo not drawn) [Compound 66] ... < 50 nM
CSC(C)C(=O)N1CCCCC1c1nc(-c2ccc3c(c2)OCC3)c[nH]1 (stereo not drawn) [Compound 19] ... < 50 nM
CSC(C)C(=O)N1CCCCC1c1ncc(-c2ccc(F)c(F)c2)[nH]1 (stereo not drawn) [Compound 60] ... < 50 nM

Exam item: Fill in reported EC50 for this entry: CC(CC(F)(F)F)C(=O)N1CCCCC1c1nc(-c2ccccc2)c[nH]1 (stereo not drawn) [Compound 183]
Marked response: 300 to 1000 nM

Exam item: Fill in reported EC50 for this entry: CC(C(=O)N1CCCCC1c1nc(-c2ccccc2)c[nH]1)C1CCC1 (stereo not drawn) [Compound 148]
Marked response: 50 to 300 nM

Exam item: Fill in reported EC50 for this entry: CSC(C)C(=O)N1CCCCC1c1nc(-c2cncc(C)c2)c[nH]1 (stereo not drawn) [Compound 44]
Marked response: 50 to 300 nM

Exam item: Fill in reported EC50 for this entry: CSC(C)C(=O)N1CCCCC1c1ncc(-c2ccc(C)s2)[nH]1 (stereo not drawn) [Compound 127]
Marked response: < 50 nM

====

Below: a set of entries, each annotated with reported pEC50.
# target: hTRPM8 (Homo sapiens, UniProt Q7Z2W7)
# testProtocol: Assay on TRPM8 modulators: calcium imaging (Fluo-4, Flexstation) in HEK293 cell line stably expressing hTRPM8
# assayContext: HEK293 cells stably expressing hTRPM8; calcium influx, Fluo-4, Flexstation 3; sigmoidal dose-response fit
pEC50: −log10 of the molar value.

Known results for molecules:
C=CCSC(C)C(=O)N1CCCCC1c1ncc(-c2ccc(C)cc2)[nH]1 (stereo not drawn) ... > 7.30
C=CC(C)(C)C(=O)N1CCCCC1c1ncc(-c2ccc(C)cc2)[nH]1 (stereo not drawn) ... > 7.30
CC1CC1C(=O)N1CCCCC1c1nc(-c2ccccc2)c[nH]1 (stereo not drawn) ... 6.52 to 7.30
CC(F)(F)CC(=O)N1CCCCC1c1nc(-c2ccccc2)c[nH]1 (stereo not drawn) ... 4.46 to 6.00
CCOC(C)C(=O)N1CCCCC1c1ncc(-c2cccc(F)c2)[nH]1 (stereo not drawn) ... 4.46 to 6.00
C=C(C)C(C)(C)C(=O)N1CCCCC1c1ncc(-c2ccc(C)cc2)[nH]1 (stereo not drawn) ... > 7.30
CC1(C)CC1C(=O)N1CCCCC1c1nc(-c2ccccc2)c[nH]1 (stereo not drawn) ... > 7.30
CNc1cccc(-c2cnc(C3CCCCN3C(=O)C(C)SC)[nH]2)c1 (stereo not drawn) ... 6.52 to 7.30

Exam item: Fill in reported pEC50 for this entry: O=C(C1CC1)N1CCCCC1c1nc(-c2ccccc2)c[nH]1 (stereo not drawn)
Marked response: 4.46 to 6.00

Exam item: Fill in reported pEC50 for this entry: CCC(C)C(=O)N1CCCCC1c1ncc(-c2ccc(C#N)cc2)[nH]1 (stereo not drawn)
Marked response: > 7.30

Exam item: Fill in reported pEC50 for this entry: CCC(OC)C(=O)N1CCCCC1c1nc(-c2ccccc2)c[nH]1 (stereo not drawn)
Marked response: 6.00 to 6.52

Exam item: Fill in reported pEC50 for this entry: CSC(C)C(=O)N1CCCCC1c1nc(-c2ccccc2F)c[nH]1 (stereo not drawn)
Marked response: > 7.30

Exam item: Fill in reported pEC50 for this entry: CSC(C)C(=O)N1CCCCC1c1nc(-c2ccc(CN3CCOCC3)cc2)c[nH]1 (stereo not drawn)
Marked response: 4.46 to 6.00

====

Below: a set of entries, each annotated with reported EC50.
# target: hTRPM8 (Homo sapiens)
# testProtocol: Assay on TRPM8 modulators: calcium imaging (Fluo-4, Flexstation) in HEK293 cell line stably expressing hTRPM8
# assayContext: HEK293 cells stably expressing hTRPM8; calcium influx, Fluo-4, Flexstation 3; sigmoidal dose-response fit

Known results for compounds:
CSC(C)C(=O)N1CCCCC1c1nc(-c2c(C)noc2C)c[nH]1 (stereo not drawn) ... 1000 to 35000 nM
CSC(C)C(=O)N1CCCCC1c1nc(-c2ccc(C)o2)c[nH]1 (stereo not drawn) ... < 50 nM
CSCC(=O)N1CCCCC1c1nc(-c2ccccc2)c[nH]1 (stereo not drawn) ... 300 to 1000 nM
CSC(C)C(=O)N1CCNCC1c1ncc(-c2ccc(C)cc2)[nH]1 (stereo not drawn) ... < 50 nM
CC(=O)C(C)C(=O)N1CCCCC1c1ncc(-c2ccc(C)cc2)[nH]1 (stereo not drawn) ... 50 to 300 nM

Exam item: Fill in reported EC50 for this entry: CCC(C(=O)N1CCCCC1c1nc(-c2ccccc2)c[nH]1)N(C)C (stereo not drawn)
Marked response: 1000 to 35000 nM

Exam item: Fill in reported EC50 for this entry: CCC(C)C(=O)N1CCCCC1c1ncc(-c2ccc(CO)cc2)[nH]1 (stereo not drawn)
Marked response: 50 to 300 nM

Exam item: Fill in reported EC50 for this entry: COCc1cc(-c2cnc(C3CCCCN3C(=O)C(C)SC)[nH]2)cs1 (stereo not drawn)
Marked response: 50 to 300 nM

Exam item: Fill in reported EC50 for this entry: COc1nscc1-c1cnc(C2CCCCN2C(=O)C(C)SC)[nH]1 (stereo not drawn)
Marked response: 1000 to 35000 nM

====

# target: hTRPM8 (Homo sapiens)
# testProtocol: Assay on TRPM8 modulators: calcium imaging (Fluo-4, Flexstation) in HEK293 cell line stably expressing hTRPM8
# assayContext: HEK293 cells stably expressing hTRPM8; calcium influx, Fluo-4, Flexstation 3; sigmoidal dose-response fit
pEC50: −log10 of the molar value.
measurementLabel: pEC50

Known results for compounds:
CC[C@H](C)C(=O)N1CCCC[C@@H]1c1ncc(-c2ccc(C)cc2)[nH]1 ... > 7.30
C/C=C/C(C)C(=O)N1CCCCC1c1ncc(-c2ccc(C)cc2)[nH]1 (stereo not drawn) ... > 7.30
CSC(C)C(=O)N1CCCCC1c1nc(-c2ccc(C#N)cc2)c[nH]1 (stereo not drawn) ... > 7.30
CS[C@@H](C)C(=O)N1CCCC[C@H]1c1ncc(-c2ccc(C)cc2)[nH]1 ... 6.52 to 7.30
O=C(CSC(F)(F)F)N1CCCCC1c1nc(-c2ccccc2)c[nH]1 (stereo not drawn) ... 4.46 to 6.00

Exam item: Fill in reported pEC50 for this entry: CSC(C)C(=O)N1CCCCC1c1nc(-c2ccc3ccsc3c2)c[nH]1 (stereo not drawn)
Marked response: > 7.30

Exam item: Fill in reported pEC50 for this entry: CC(C)=CC(=O)N1CCCCC1c1nc(-c2ccccc2)c[nH]1 (stereo not drawn)
Marked response: 4.46 to 6.00

Exam item: Fill in reported pEC50 for this entry: O=C(Cc1ccoc1)N1CCCCC1c1nc(-c2ccccc2)c[nH]1 (stereo not drawn)
Marked response: 6.52 to 7.30

Exam item: Fill in reported pEC50 for this entry: CC(C)C(=O)N1CCCCC1c1nc(-c2ccccc2)c[nH]1 (stereo not drawn)
Marked response: 6.00 to 6.52

====

# target: hTRPM8 (Homo sapiens)
# testProtocol: Assay on TRPM8 modulators: calcium imaging (Fluo-4, Flexstation) in HEK293 cell line stably expressing hTRPM8
# assayContext: HEK293 cells stably expressing hTRPM8; calcium influx, Fluo-4, Flexstation 3; sigmoidal dose-response fit
measurementLabel: EC50

CSC(C)C(=O)N1CCCCC1c1ncc(-c2ccccc2)o1 (stereo not drawn) [Compound 138] ... 300 to 1000 nM
CSC(C)C(=O)N1CCCCC1c1nc(-c2ccccc2O)c[nH]1 (stereo not drawn) [Compound 24] ... 50 to 300 nM
CNCC(=O)Nc1ccc(-c2cnc(C3CCCCN3C(=O)C(C)SC)[nH]2)cc1 (stereo not drawn) [Compound 100] ... 50 to 300 nM

Exam item: // fetch EC50; item: CC1CC(C(=O)N2CCCCC2c2nc(-c3ccccc3)c[nH]2)CO1 (stereo not drawn) [Compound 7] ; system: hTRPM8 (Homo sapiens)
Marked response: 1000 to 35000 nM

Exam item: // fetch EC50; item: CSC(C)C(=O)N1CCCCC1c1nc(-c2cccc(C#N)c2)c[nH]1 (stereo not drawn) [Compound 174] ; system: hTRPM8 (Homo sapiens)
Marked response: 50 to 300 nM

Exam item: // fetch EC50; item: Cc1ccc(-c2cnc(C3CCCCN3C(=O)C(C)C(C)C)[nH]2)cc1 (stereo not drawn) [Compound 199] ; system: hTRPM8 (Homo sapiens)
Marked response: < 50 nM
